# TARGET SYSTEM: T1, Cynomolgus Factor P (cynomolgus)
# T1 construct: Purified from cynomolgus serum for SET/Biacore; Factor P of cynomolgus serum in the functional assays; also called Cyno Factor P; cyno FP
# EXPERIMENT NOTES: Biacore SPR, captured Factor P
// reported koff per item
# unit: s⁻¹ | format: bare number

[[record]]
binder = "NVS965-Q (Fab, V domains shown, NVS965 with heavy chain N30 replaced with glutamine) VH: EVQLVQSGAEVKKPGSSVKVSCKASGGTFQSYAISWVRQAPGQGLEWMGRIIPIFGTANYAQKFQGRVTITADESTSTAYMELSSLRSEDTAVYYCARHGGYSFDSWGQGTLVTVSS VL: SYVLTQPPSVSVAPGKTARISCSGDNLGSKYVDWYQQKPGQAPVLVIYSDNNRPSGIPERFSGSNSGNTATLTISGTQAMDEADYYCATYDSSPRTEVFGGGTKLTVLG"
numeric_value = 0.000594


Shifting focus to the binder that follows.
Field request: koff | item: NVS965-S (Fab, V domains shown, NVS965 with heavy chain N30 replaced with serine) VH: EVQLVQSGAEVKKPGSSVKVSCKASGGTFSSYAISWVRQAPGQGLEWMGRIIPIFGTANYAQKFQGRVTITADESTSTAYMELSSLRSEDTAVYYCARHGGYSFDSWGQGTLVTVSS VL: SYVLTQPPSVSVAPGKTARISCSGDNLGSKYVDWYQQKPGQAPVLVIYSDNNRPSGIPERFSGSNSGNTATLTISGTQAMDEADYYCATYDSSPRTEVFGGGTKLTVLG 0.000163
